target: Activated human plasma kallikrein (Enzyme Research Laboratories, HPKa 1303) (human, UniProt P03952 20-638); experiment: cell-based or functional assay
Sequence (P03952 20-638 limits assumed): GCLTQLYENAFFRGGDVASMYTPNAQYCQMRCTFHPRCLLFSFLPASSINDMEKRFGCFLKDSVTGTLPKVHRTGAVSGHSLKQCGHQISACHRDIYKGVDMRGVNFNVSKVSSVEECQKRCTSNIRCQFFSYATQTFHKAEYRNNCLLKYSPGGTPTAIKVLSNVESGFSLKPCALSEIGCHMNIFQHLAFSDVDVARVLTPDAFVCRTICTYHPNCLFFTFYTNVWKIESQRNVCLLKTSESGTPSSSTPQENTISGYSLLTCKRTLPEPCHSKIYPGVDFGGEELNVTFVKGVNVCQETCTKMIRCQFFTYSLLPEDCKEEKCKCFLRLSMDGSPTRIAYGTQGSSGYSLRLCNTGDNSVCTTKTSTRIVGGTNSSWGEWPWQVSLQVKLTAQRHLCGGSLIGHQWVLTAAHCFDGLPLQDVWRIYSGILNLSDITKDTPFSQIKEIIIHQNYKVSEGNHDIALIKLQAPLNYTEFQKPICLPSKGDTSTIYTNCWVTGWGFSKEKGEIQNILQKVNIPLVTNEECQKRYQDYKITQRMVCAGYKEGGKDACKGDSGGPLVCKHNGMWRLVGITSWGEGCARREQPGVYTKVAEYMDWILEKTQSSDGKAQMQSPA
Bridge positions count the residues as written; N and C are the ends. Square brackets hold non-standard residues; d marks the D form. Ends that are not written are not given here. mXylyl = xylyl linker from dibromoxylene joining the two cysteines; Nva = CCC[C@H](N)C(=O)O
Readout type: Avg. IC50 (nM)
Just the number in nM, nothing appended.

• Ac-NYWSPWTECSA-NH2 [R2117] = 43.9
• Ac-CNYWSPWTEC-NH2 (cysteine pairing not given here) [R2126] = 1.4
• MCNYWSPWTSE-NH2 [R2123] = 25.5
• Ac-CNYWSPWTEA-NH2 [R2127] = 35.6
• Ac-ANYWSPWTAC-NH2 [R2143] = 48.4
• Ac-CNYWSPWTA[Nva]-NH2 (SMILES CCC[C@H](NC(=O)[C@H](C)NC(=O)[C@@H](NC(=O)[C@H](Cc1c[nH]c2ccccc12)NC(=O)[C@@H]1CCCN1C(=O)[C@H](CO)NC(=O)[C@H](Cc1c[nH]c2ccccc12)NC(=O)[C@H](Cc1ccc(O)cc1)NC(=O)[C@H](CC(N)=O)NC(=O)[C@H](CS)NC(C)=O)[C@@H](C)O)C(N)=O) [R2140] = 105
• MCNYWSPWTECSA-NH2 (cysteine pairing not given here) [R2104] = 3.4
• Ac-CNYWSPWTECSA-NH2 (linker 1-10 via mXylyl) [R2125] = 10.6

# get_value(readout='Avg. IC50', item= Ac-CNYWSPWTAC-NH2 (disulfide 1-10; SMILES CC(=O)N[C@H]1CSSC[C@@H](C(N)=O)NC(=O)[C@H](C)NC(=O)[C@H]([C@@H](C)O)NC(=O)[C@H](Cc2c[nH]c3ccccc23)NC(=O)[C@@H]2CCCN2C(=O)[C@H](CO)NC(=O)[C@H](Cc2c[nH]c3ccccc23)NC(=O)[C@H](Cc2ccc(O)cc2)NC(=O)[C@H](CC(N)=O)NC1=O) [R2142] )
2.7

Now consider Ac-CNYWSPWTAC-NH2 (linker 1-10 via mXylyl) [R2136] .
6.1

Now consider MCNYWSPWTECSA-NH2 (linker 2-11 via mXylyl) [R2108] .
4.1

Now consider Ac-CNYWSPWTECSA-NH2 (cysteine pairing not given here) [R2116] .
3.5

Now consider Ac-CNYWSPWTAA-NH2 [R2144] .
95.5
